biological target: GABA-A receptor; anion channel; experiment: In vitro displacement of [3H]TBOB from Gamma-aminobutyric acid A (GABA-A) receptor of rat brain
Param label: returns Y when Ki < 100 nM, returns N otherwise, including exact equality.

Task item: Hello, I'm reviewing records and need to know if Ki of C#Cc1ccc(C2SCC(C(C)(C)C)CS2)cc1 (stereo not drawn) is below 100 nM. Could you check?
Reply: Y

Task item: Hello, I'm reviewing records and need to know if Ki of CC(C)(C)C1CS(=O)(=O)C(C)(c2ccc(I)cc2)S(=O)(=O)C1 (stereo not drawn) is below 100 nM. Could you check?
Reply: N

Task item: Hello, I'm reviewing records and need to know if Ki of CC1(c2ccc(I)cc2)SCC(C(C)(C)C)CS1 (stereo not drawn) is below 100 nM. Could you check?
Reply: N

Task item: Hello, I'm reviewing records and need to know if Ki of CC(C)(C)C1CS(=O)(=O)C(C)(c2ccc(C#N)cc2)S(=O)(=O)C1 (stereo not drawn) is below 100 nM. Could you check?
Reply: Y

Task item: Hello, I'm reviewing records and need to know if Ki of CC(C)(C)[C@H]1CS(=O)(=O)[C@@](C)(c2ccc(C#N)cc2)S(=O)(=O)C1 (stereo in doubt; 9b) is below 100 nM. Could you check?
Reply: Y

Task item: Hello, I'm reviewing records and need to know if Ki of CC(C)(C)[C@H]1CS(=O)(=O)[C@@](C)(c2ccc(C#N)cc2)S(=O)(=O)C1 (stereo in doubt; 9a) is below 100 nM. Could you check?
Reply: N

Task item: Hello, I'm reviewing records and need to know if Ki of CC(C)(C)C1CSC(c2ccc(C#N)cc2)SC1 (stereo not drawn) is below 100 nM. Could you check?
Reply: N

Task item: Hello, I'm reviewing records and need to know if Ki of CC(C)(C)C1CS(=O)(=O)C(c2ccc(F)cc2)S(=O)(=O)C1 (stereo not drawn) is below 100 nM. Could you check?
Reply: N
